Euclidean distance: recorded values
# System: FB
# Assay details: Euclidean distance of Cell Painting phenotypic profile (signed KS, 77 features) to DMSO centroid (dimensionless distance); 5 or 10 uM (library dependent); higher = stronger phenotypic change vs DMSO (phenoactivity)
# Run conditions: 48 h
Where a name gives a salt, the structure may show the parent alone.

Compound | Euclidean distance
CCOc1ccccc1OCCN[C@H](C)Cc1ccc(OC)c(S(N)(=O)=O)c1 | 1.01
O=C(c1c(F)ccc(NS(=O)(=O)N2CC[C@@H](F)C2)c1F)c1c[nH]c2ncc(-c3cnc(C4CC4)nc3)cc12 | 2.6
CCOC(CN1CCN(CC(C)C(=O)c2ccccc2)CC1)c1ccccc1 (centres undefined) [Eprazinone 2HCl] | 1.38
OCCN(CCO)c1nc(N2CCCCC2)c2nc(N(CCO)CCO)nc(N3CCCCC3)c2n1 | 0.963
Nc1cc(Cl)c(N=C2NCCN2)c(Cl)c1 [Apraclonidine HCl] | 1.25
C/C(=C\C(=O)Nc1ccccc1C(=O)O)c1ccc2ccccc2c1 | 1.59
CNC(=O)c1ccc(N2C(=S)N(c3cnc(C#N)c(C(F)(F)F)c3)C(=O)C23CCC3)cc1F | 0.828
OCC(CO)N[C@H]1C[C@](O)(CO)[C@@H](O)[C@H](O)[C@H]1O | 0.977
CC(=O)O[C@H]1C[C@@]2(C)[C@@H](C[C@@H](O)[C@H]3[C@@]4(C)CC[C@@H](O)[C@@H](C)[C@@H]4CC[C@@]32C)/C1=C(\CCC=C(C)C)C(=O)O [Fusidate Sodium] | 1.32

* * *

# Tested on: HEPG2
# Assay details: Euclidean distance of Cell Painting phenotypic profile (signed KS, 77 features) to DMSO centroid (dimensionless distance); 5 or 10 uM (library dependent); higher = stronger phenotypic change vs DMSO (phenoactivity)
# Run conditions: 48 h
Where a name gives a salt, the structure may show the parent alone.

Molecule | Euclidean distance
CCn1cc(C(=O)O)c(=O)c2cc(F)c(N3CCNCC3)cc21 | 0.65
O=C1CC2(CCCC2)CC(=O)N1CCCCN1CCN(c2ncccn2)CC1 [Buspirone HCl] | 0.61
COCCCN1CCC(NC(=O)c2cc(Cl)c(N)c3c2OCC3)CC1 [Prucalopride Succinate] | 0.733
O=c1cc(-c2ccc(O)c(O)c2)oc2cc(O)cc(O)c12 | 1.36
COc1ncnc(NS(=O)(=O)c2ccc(N)cc2)c1OC | 0.397
OC[C@@H](O)[C@@H](O)[C@H](O)[C@H](O)CO | 0.415
COc1ccc2cc([C@H](C)C(=O)O)ccc2c1 [Naproxen] | 1.13
COc1c(C)cnc(Cn2cnc3c(Cl)nc(N)nc32)c1C | 4.24
COc1cc(N2CCC(N)CC2)ccc1Nc1ncc(Cl)c(-c2c[nH]c3ccccc23)n1 | 2.56
CO[C@H]1CC[C@H](N2C(=O)CNc3ncc(-c4ccc(C(C)(C)O)nc4)nc32)CC1 | 2.34
Cc1ccc(=O)n(-c2ccccc2)c1 | 0.297
CO/N=C(\C(=O)N[C@@H]1C(=O)N2C(C(=O)O)=C(COC(C)=O)CS[C@H]12)c1csc(N)n1 | 0.777
OC(CCN1CCCCC1)(c1ccccc1)C1CC2C=CC1C2 (centres undefined) [Biperiden HCl] | 1.01
CC(C(=O)O)c1ccc(C(=O)c2ccccc2)s1 (centres undefined) | 0.859
O=C1[C@H](CC[C@H](O)c2ccc(F)cc2)[C@@H](c2ccc(O)cc2)N1c1ccc(F)cc1 | 2.26
CC(CCc1ccc(O)cc1)NCC(O)c1ccc(O)cc1 (centres undefined) [Ractopamine HCl] | 0.522
C[C@H]1C[C@@H]2[C@H]([C@@H](O)C[C@@]3(C)[C@H]2CC[C@]3(O)C(=O)CO)[C@@]2(C)C=CC(=O)C=C12 | 2.31
CCCCOc1ccc(CC(=O)NO)cc1 | 0.883
COc1cc2nccc(Oc3ccc(NC(=O)NC4CC4)c(Cl)c3)c2cc1C(N)=O [lenvatinib Mesylate] | 0.829

* * *

# System: 786-O
# Assay details: Euclidean distance of Cell Painting phenotypic profile (signed KS, 77 features) to DMSO centroid (dimensionless distance); 5 or 10 uM (library dependent); higher = stronger phenotypic change vs DMSO (phenoactivity)
# Run conditions: 48 h
Structures can show the parent of a compound that is named as a salt.
Euclidean distance overview
Reported property: Euclidean distance

Molecule | Reported property | Measured
CC(C)N(CCCNC(=O)Nc1ccc(C(C)(C)C)cc1)C[C@H]1O[C@@H](n2ccc3c(N)ncnc32)[C@H](O)[C@@H]1O | Euclidean distance | 1.04
CCCCN1CCCCC1C(=O)Nc1c(C)cccc1C (stereo not drawn) [Bupivacaine HCl] | Euclidean distance | 1.38
Oc1ccc2c(c1)CC[C@H](c1ccccc1)[C@@H]2c1ccc(OCCN2CCCC2)cc1 [Lasofoxifene Tartrate] | Euclidean distance | 2.93
O=C(Nc1cccc(C(F)(F)F)c1)Nc1cc(S(=O)(=O)NC2CC2)ccc1-c1ccsc1 | Euclidean distance | 0.684
CC(S)C(=O)NCC(=O)O (stereo not drawn) [Tiopronin] | Euclidean distance | 1.57
CN(C)CCN(Cc1ccc(Cl)cc1)c1ccccn1 [Chloropyramine hydrochloride] | Euclidean distance | 0.88
CCCCOc1ccc(C(=O)CCN2CCCCC2)cc1 [Dyclonine HCl] | Euclidean distance | 1.45
O=C(O)Cc1ccccc1Nc1c(Cl)cccc1Cl [Diclofenac Epolamine] | Euclidean distance | 0.939
CCOc1cc(CC(=O)N[C@@H](CC(C)C)c2ccccc2N2CCCCC2)ccc1C(=O)O [Repaglinide] | Euclidean distance | 1.98
CCN(CC)C(=O)/C(C#N)=C/c1cc(O)c(O)c([N+](=O)[O-])c1 [Entacapone] | Euclidean distance | 0.439
CC(=O)NS(=O)(=O)c1ccc(N)cc1 [Sulfacetamide sodium salt hydrate] | Euclidean distance | 1.2
CCN(CC)C(=O)N1CCN(C)CC1 [Diethylcarbamazine citrate] | Euclidean distance | 0.755
C[C@H](O)C(=O)Nc1c(I)c(C(=O)NC(CO)CO)c(I)c(C(=O)NC(CO)CO)c1I [Iopamidol] | Euclidean distance | 0.656
COc1ccc(C[C@H](N)C(=O)N[C@H]2[C@@H](O)[C@H](n3cnc4c(N(C)C)ncnc43)O[C@@H]2CO)cc1 [Puromycin 2HCl] | Euclidean distance | 6.42
Cc1ccc(-n2nc(C(C)(C)C)cc2NC(=O)Nc2ccc(OCCN3CCOCC3)c3ccccc23)cc1 [BIRB 796 (Doramapimod)] | Euclidean distance | 1.54
CC1COc2c(N3CCN(C)CC3)c(F)cc3c(=O)c(C(=O)O)cn1c23 (stereo not drawn) [Ofloxacin] | Euclidean distance | 1.01
Cn1c(=O)c(F)c(Nc2ccc(I)cc2F)c2c(=O)n(C[C@@H](O)CO)cnc21 | Euclidean distance | 3.48
CCc1cncnc1N1CCN(Cc2nc3ccc(C(F)(F)F)cc3[nH]2)CC1 | Euclidean distance | 1.03
CC[C@H]1OC(=O)[C@H](C)[C@@H](O[C@H]2C[C@@](C)(OC)[C@@H](O)[C@H](C)O2)[C@H](C)[C@@H](O[C@@H]2O[C@H](C)C[C@H](N(C)C)[C@H]2O)[C@](C)(O)C[C@@H](C)CN(C)[C@H](C)[C@@H](O)[C@]1(C)O [Azithromycin Dihydrate] | Euclidean distance | 1.29
CC(C)NCC(O)c1ccc(O)c(O)c1 (stereo not drawn) [Isoprenaline HCl] | Euclidean distance | 1.55
Oc1c(Br)cc(Br)c2cccnc12 [Broxyquinoline] | Euclidean distance | 0.96
N#Cc1c(Oc2ccc(F)c(NC(=O)Cc3cccc(C(F)(F)F)c3)c2)ccc2nc(NC(=O)C3CC3)sc12 | Euclidean distance | 2.61
O=c1oc2cc(O)ccc2s1 [Tioxolone] | Euclidean distance | 1.49
O=c1ccc2cc3ccoc3cc2o1 [Psoralen] | Euclidean distance | 1.35
C=CCOc1ccccc1OCC(O)CNC(C)C (stereo not drawn) [Oxprenolol HCl] | Euclidean distance | 0.863
CNC(=O)Nc1ccc(-c2nc(N3CC4CCC(C3)O4)c3cnn(C4CCC5(CC4)OCCO5)c3n2)cc1 | Euclidean distance | 4.15
COc1ccc2cc1Oc1ccc(cc1)C[C@H]1c3cc(c(OC)cc3CCN1C)Oc1c(O)c(OC)cc3c1[C@H](C2)N(C)CC3 [Fangchinoline] | Euclidean distance | 4.67
CCC(NC(C)C)C(O)c1ccc(O)c(O)c1 (stereo not drawn) [Isoetharine Mesylate] | Euclidean distance | 0.478
CCC[C@@H]1C[C@@H](C(=O)N[C@@H]([C@H]2O[C@H](SC)[C@H](O)[C@@H](O)[C@H]2O)[C@@H](C)O)N(C)C1 [Lincomycin Hydrochloride Monohydrate] | Euclidean distance | 0.425
Cn1cc(C2=C(c3ccc(Cl)cc3Cl)C(=O)NC2=O)c2ccccc21 | Euclidean distance | 1.92
CNC(=O)c1cc(Oc2ccc(NC(=O)Nc3cc(C(C)(C)C)nn3-c3ccc4ncccc4c3)c(F)c2)ccn1 [DCC-2036 (Rebastinib)] | Euclidean distance | 2.89
CC(C)(C#N)c1cc(Cn2cncn2)cc(C(C)(C)C#N)c1 [Anastrozole] | Euclidean distance | 1.11
Cc1cccc(C)c1NC(=O)c1cc(S(N)(=O)=O)c(Cl)cc1O [Xipamide] | Euclidean distance | 1.51
